Please respond with reported pEC50 for every item in the list.
Target: Dual specificity tyrosine-phosphorylation-regulated kinase 1A (Homo sapiens)
Experiment: Inhibition of recombinant DYRK1A (unknown origin) using Ser/Thr 18 peptide as substrate incubated for 1 hr in presence of ATP by FRET assay
Give bare numbers, as −log10 of the molar value.

>>> endpoint_value("CN1CCC(Oc2ccc(NC(=O)c3n[nH]c4cc(F)c(-c5cnn(C)c5)cc34)cn2)CC1")
9.00
>>> endpoint_value("O=C(Nc1cncc(-c2ccc3[nH]nc(-c4cc5cnccc5[nH]4)c3c2)c1)C1CCC1")
8.70
>>> endpoint_value("c1cncc(-c2ccc3[nH]nc(-c4nc5c(-c6cccnc6)cncc5[nH]4)c3n2)c1")
7.33
>>> endpoint_value("Fc1ccccc1-c1cncc2[nH]c(-c3n[nH]c4ncc(-c5cn[nH]c5)cc34)cc12")
7.70
>>> endpoint_value("CCC(=O)Nc1cncc(-c2cnc3[nH]nc(-c4cc5c(-c6cccc(F)c6)cncc5[nH]4)c3c2)c1")
7.89

Take each entry in turn and give its pEC50.
1. O=C(Nc1ccnnc1)c1n[nH]c2ccc(-c3cncc(CN4CCCCC4)c3)cc12
2. Cc1n[nH]c2cc(F)c(-c3cncc(O[C@H]4CCNC[C@@H]4F)n3)cc12
3. Cc1ccc(-c2cncc3[nH]c(-c4n[nH]c5cnc(-c6cncc(N)c6)cc45)nc23)s1
4. O=C(Nc1cncc(-c2cc3c(-c4cc5c(N6CCCCC6)nccc5[nH]4)n[nH]c3cn2)c1)C1CCC1

**Result**
1. 9.00
2. 8.22
3. 7.36
4. 7.64

These measurements were taken from ChEMBL document CHEMBL4739717.
